Hey, just so you know, these numbers are from patent US8735398B2.

System: HCV 1b genotype
Assay: HCV replicon assay (HCV-neo replicon cells, wild-type)
Type: cell-based, Hepatitis C virus
Conditions: Hepatitis C virus, HCV 1b genotype replicon; class symbol; read-out: EC50 Range against HCV 1b
Experimental: An HCV Replicon assay was utilized in the present disclosure, and was prepared, conducted and validated as described in commonly owned PCT/US2006/022197 and in O'Boyle et al., Antimicrob. Agents Chemother, 49(4):1346-1353 (April 2005). […] The compounds were determined to have differing degrees of reduced inhibitory activity on cells containing mutations vs. the corresponding inhibitory potency against wild-type cells. […]
PARAMETER MEASURED: EC50

O=C(Nc1ccc(-c2nnc(-c3ccc(NC(=O)[C@@H]4CCCN4C(=O)C4CC4)cc3)o2)cc1)[C@@H]1CCCN1C(=O)C1CC1 [Example D-58]    1000 to 10000 nM
COc1cc(C(=O)N[C@@H](C)C(=O)Nc2ccc(-c3nnc(-c4ccc(NC(=O)[C@H](C)NC(=O)c5cc(OC)c6ccccc6n5)cc4)o3)cc2)nc2ccccc12 [RK-22]    100 to 999 nM
O=C(Nc1ccc(-c2nnc(-c3ccc(NC(=O)C4CCCN4C(=O)Cc4ccccc4)cc3)o2)cc1)C1CCCN1C(=O)Cc1ccccc1 (centres unmarked) [RK-3]    100 to 999 nM
O=C(Nc1ccc(-c2cc(-c3ccc(NC(=O)[C@@H]4CCCN4C(=O)[C@H](O)c4ccccc4)cc3)[nH]n2)cc1)[C@@H]1CCCN1C(=O)[C@H](O)c1ccccc1 [JG-32]    < 4.57 nM
CC(=O)N1CCC[C@H]1C(=O)Nc1ccc(-c2cc(-c3ccc(NC(=O)[C@@H]4CCCN4C(=O)Cc4ccccc4)cc3)n[nH]2)cc1 [OL-36]    100 to 999 nM
